- Test Details: Cytotoxicity against BHK cells by MTT assay
- Format: cell-based, Mesocricetus auratus
- Study Conditions: hamster
Endpoint Name: CC50 (µM)
Respond numerically; units are µM and should not be typed.

Consider the following illustrative entries.
| Compound | CC50 [µM] |
| --- | --- |
| CC(C)[C@@H]1CC[C@@H](C)CC1OCCCCCCN1C[C@H](O)[C@@H](O)[C@H](O)[C@H]1CO (stereo not given in full) | 70 |
| Cc1ccc(C)c(OCCCCCCN2C[C@H](O)[C@@H](O)[C@H](O)[C@H]2CO)c1 | 75 |
| CCCCCCCCCN1C[C@H](O)[C@@H](O)[C@H](O)[C@H]1CO | 20 |

# compound C[C@@H]1CCCCC1OCCCCCCN1C[C@H](O)[C@@H](O)[C@H](O)[C@H]1CO (stereo not given in full) ; its CC50 = 70
